Sourced from paper PMC9482650

# Tested System: T1, TX1BP3, O14907
# T1 sequence (O14907 10-122, limits assumed, looked up): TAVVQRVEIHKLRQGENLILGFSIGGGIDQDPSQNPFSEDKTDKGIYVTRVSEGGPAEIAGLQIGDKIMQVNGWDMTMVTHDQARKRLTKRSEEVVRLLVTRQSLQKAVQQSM
# Assay Text: holdup assay
# Set-up: key: below the threshold = too weak to quantify, mostly under pKd 3.1 to 4
# Applied Conditions: plain residues with an end cap or a label only (N-terminal biotin on a linker: ado-ado)
Readout Name: pKd
Give the value as a plain number.

Illustrative cases are given below, each with its answer.
Query: pKd; subject: PPYRHRNTVV [ERBB4, Q15303]
4.13

Let us now turn to QHKTQLQTLI [BPIFA2, Q96DR5]
3.79

Let us now turn to QGLAERISVL [PRKD2, Q9BZL6]
4.38

Let us now turn to SAKVRTVTSV [RASL11B, Q9BPW5]
4.53

Let us now turn to NLSIEKETKL [ASNSD1, Q9NWL6]
3.53

Let us now turn to PRAEAEDSFL [PDGFRB, P09619]
4.34

Let us now turn to SGSLKLMTTV [DACT1, Q9NYF0]
3.75

Let us move to another entry and its pKd.
Query: pKd; subject: LPHPHSTTRV [NLGN2, Q8NFZ4]
3.79
